Origin of measurements: patent US7838294B2

Biological target: T1, JNK1 (Homo sapiens, UniProt P45983)
T1 construct: expressed in transfected cells
T1 sequence (P45983 1-384 isoform P45983-2): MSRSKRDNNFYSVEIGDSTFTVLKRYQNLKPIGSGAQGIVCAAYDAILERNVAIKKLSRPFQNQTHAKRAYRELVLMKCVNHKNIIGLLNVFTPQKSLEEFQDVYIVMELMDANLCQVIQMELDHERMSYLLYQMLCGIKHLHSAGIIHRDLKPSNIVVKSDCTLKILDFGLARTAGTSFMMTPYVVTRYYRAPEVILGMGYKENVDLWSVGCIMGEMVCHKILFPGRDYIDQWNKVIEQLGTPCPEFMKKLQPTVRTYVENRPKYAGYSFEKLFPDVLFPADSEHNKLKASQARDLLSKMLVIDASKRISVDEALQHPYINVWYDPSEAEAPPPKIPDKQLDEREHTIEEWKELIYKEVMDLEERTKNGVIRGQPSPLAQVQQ
Experiment: GST-fusion pull-down from cell lysates, Flag immunoblot: JNK1
Assay type: binding
Settings: 5 μg GST-fusion protein on glutathione-Sepharose, Flag-JNK1 lysate, one hour 4° C.
Protocol: To test whether JIP-1 binding to JNK is also isoform-dependent, a binding assay was utilized. Cell lysates (1 ml in TLB) containing JNK1, JNK2, or p38 MAP kinase, each tagged with the Flag epitope, were incubated with 5 μg GST-fusion proteins pre-bound to 10 μl glutathione-Sepharose. […] After incubation for one hour at 4° C. and three washes with TLB, bound proteins were detected by protein immunoblot analysis with the M2 monoclonal antibody, which is specific for the Flag epitope. […]

molecule	binding to JNK1
GST-JIP-1 residues 135-202: GST fusion protein containing residues 135-202 of JIP-1 (protein, UniProt Q9WVI9 135-202, looked up, fragment, GST fusion) PAPRSQGQGPGTGSGDTYRPKRPTTLNLFPQVPRSQDTLNNNSLGKKHSWQDRVSRSSSPLKTGEQTP	bound
